- System name: HIV-1 protease (Human immunodeficiency virus type 1 group M subtype B, UniProt P04585)
- Assay protocol: inhibition constants against HIV-1 protease (method of Pennington et al.)
- Assay type: biochemical
Quantity measured: Ki (µM)

> print(dat)
                                   compound                               system.name  result.value
1  COc1ccc(S(=O)(=O)N(CC2CCCC2)C[C@@H](O)CN2C(=O)C(C)C[C@@H]2Cc2ccccc2)cc1 (some centres unmarked)  HIV-1 protease (Human immunodeficiency virus type 1 group M subtype B, UniProt P04585)         0.056
2  COc1ccc(S(=O)(=O)N(CC(O)CN2C(=O)C(CC3COCO3)C[C@@H]2Cc2ccccc2)CC2CCCC2)cc1 (some centres unmarked)  HIV-1 protease (Human immunodeficiency virus type 1 group M subtype B, UniProt P04585)          0.35
3  COc1ccc(S(=O)(=O)N(CC(O)CN2C(=O)CC(O)[C@@H]2Cc2ccccc2)CC2CCCC2)cc1 (some centres unmarked)  HIV-1 protease (Human immunodeficiency virus type 1 group M subtype B, UniProt P04585)             3

I. CCC1C[C@H](Cc2ccccc2)N(CC(O)CN(CC2CCCC2)S(=O)(=O)c2ccc(OC)cc2)C1=O (some centres unmarked)
II. COc1ccc(S(=O)(=O)N(CC(O)CN2C(=O)C(C)(C)C[C@@H]2Cc2ccccc2)CC2CCCC2)cc1 (some centres unmarked)
Problem: // which entry reports the smaller Ki, I or II ? Reply briefly: the label of your chosen item.
Solution: I
(I: 0.015 µM, II: 0.115 µM)

1. COc1ccc(S(=O)(=O)N(CC(O)CN2C(=O)COC[C@@H]2Cc2ccccc2)CC2CCCC2)cc1 (some centres unmarked)
2. COc1ccc(S(=O)(=O)N(CC(O)CN2C(=O)C(NC(C)=O)C[C@@H]2Cc2ccccc2)CC2CCCC2)cc1 (some centres unmarked)
3. COC(=O)C1(C)NC[C@H](Cc2ccccc2)N(CC(O)CN(CC2CCCC2)S(=O)(=O)c2ccc(OC)cc2)C1=O (some centres unmarked)
4. COc1ccc(S(=O)(=O)N(CC2CCCC2)C[C@@H](O)CN2C(=O)C(Cc3ccccc3)C[C@@H]2Cc2ccccc2)cc1 (some centres unmarked)
5. COc1ccc(S(=O)(=O)N(CC(O)CN2C(=O)C(CC(O)CO)C[C@@H]2Cc2ccccc2)CC2CCCC2)cc1 (some centres unmarked)
Problem: Sort ascending by Ki. Answer format: list of labels, ordered as asked.
Solution: 4, 5, 2, 3, 1
(4: 0.0015 µM, 5: 0.07 µM, 2: 0.6 µM, 3: 0.95 µM, 1: 1.4 µM)

A. COC(=O)C1NC[C@H](Cc2ccccc2)N(CC(O)CN(CC2CCCC2)S(=O)(=O)c2ccc(OC)cc2)C1=O (some centres unmarked)
B. COc1ccc(S(=O)(=O)N(CC(O)CN2C(=O)C3(CCCC3)NC[C@@H]2Cc2ccccc2)CC2CCCC2)cc1 (some centres unmarked)
C. COc1ccc(S(=O)(=O)N(CC(O)CN2C(=O)CC[C@@H]2Cc2ccccc2)CC2CCCC2)cc1 (single isomer, unassigned)
D. COc1ccc(S(=O)(=O)N(CC(O)CN2C(=O)C(CC3COC(=O)O3)C[C@@H]2Cc2ccccc2)CC2CCCC2)cc1 (some centres unmarked)
E. C=CCC1C[C@H](Cc2ccccc2)N(C[C@H](O)CN(CC2CCCC2)S(=O)(=O)c2ccc(OC)cc2)C1=O (some centres unmarked)
Problem: Sort ascending by Ki. Answer format: list of labels, ordered as asked.
Solution: E, D, B, C, A
(E: 0.009 µM, D: 0.058 µM, B: 0.16 µM, C: 0.55 µM, A: 1.1 µM)

a. COc1ccc(S(=O)(=O)N(CC2CCCC2)C[C@@H](O)CN2C(=O)C3(CCCCC3)OC[C@@H]2Cc2ccccc2)cc1
b. C=CCN1C[C@H](Cc2ccccc2)N(C[C@H](O)CN(CC2CCCC2)S(=O)(=O)c2ccc(OC)cc2)C1=O
Problem: Pick one: a or b . Which has the bigger Ki number? Reply briefly: the label of your chosen item.
Solution: b

* * *

- System name: HIV-1 protease (Human immunodeficiency virus type 1 group M subtype B, UniProt P04585)
- Assay protocol: inhibition constants against HIV-1 protease (method of Pennington et al.)
- Assay type: biochemical
- Stated conditions: Inhibition constant measured at pH 6.0
Quantity measured: Ki

Would you please look over these solved cases?
> print(dat)
                                   molecule  quantity.measured  result.value
1  CC(C)(C)NC(=O)C1CSCN1C(=O)C(=O)CN1C(=O)C(C)(C)NC[C@@H]1Cc1ccccc1 (stereo partly drawn)                 Ki       > 10 µM
2  CC(C)(C)NC(=O)C1CSCN1C(=O)C(=O)CN1C(=O)CCC1Cc1ccccc1 (stereo not drawn)                 Ki       > 10 µM

Proceed to the following item.
Problem: Please state recorded Ki (tested on HIV-1 protease (Human immunodeficiency virus type 1 group M subtype B, UniProt P04585)) of CC(C)(C)NC(=O)C1C[C@@H]2CCCC[C@@H]2CN1CC(O)CN1C(=O)C(C)(C)NC[C@@H]1Cc1ccccc1 (stereo partly drawn)
Solution: > 10 µM

* * *

# Ki values compiled below
- System name: HIV-1 protease (Human immunodeficiency virus type 1 group M subtype B)
- Assay protocol: inhibition constants against HIV-1 protease (method of Pennington et al.)
- Type: biochemical

Would you please look over these solved cases?
> print(dat)
                                   molecule  result.value
1  COc1ccc(S(=O)(=O)N(CC(O)CN2C(=O)N(Cc3ccccc3)C[C@@H]2Cc2ccccc2)CC2CCCC2)cc1 (stereo partly drawn) [Compound 14]      0.016 µM
2  COc1ccc(S(=O)(=O)N(CC(O)CN2C(=O)[C@H](C)NC[C@@H]2Cc2ccccc2)CC2CCCC2)cc1 (stereo partly drawn) [Compound 30]       > 15 µM
3  CC(C)CN1CC(Cc2ccccc2)N(CC(O)CN(CC2CCCC2)S(=O)(=O)c2cccc(N)c2)C1=O (stereo not drawn) [Compound 12]       > 10 µM

Problem: I'd like to know its Ki. The molecule in question is COc1ccc(S(=O)(=O)N(CC(O)CN2[C@@H](Cc3ccccc3)CCS2(=O)=O)CC2CCCC2)cc1 (stereo partly drawn) [Compound 11]
Solution: > 10 µM

Problem: I'd like to know its Ki. The molecule in question is COc1ccc(S(=O)(=O)N(CC(O)CN2[C@@H](Cc3ccccc3)CN(C)S2(=O)=O)CC2CCCC2)cc1 (stereo partly drawn) [Compound 10]
Solution: > 10 µM

Problem: I'd like to know its Ki. The molecule in question is COc1ccc(S(=O)(=O)N(CC(O)CN2C(=O)C(N)C[C@@H]2Cc2ccccc2)CC2CCCC2)cc1 (stereo partly drawn) [Compound 21]
Solution: > 20 µM
